- protocol-notes: Perilymph Conc. listed for agents (Tables 14-25)
- condition-description: Table 14; listed concentration, no test described

compound: Cc1cnc(-c2cnc(NCCNc3ccc(C#N)cn3)nc2-c2ccc(Cl)cc2Cl)[nH]1 [CHIR99021]
Perilymph Conc: 2 to 6 µM
--
compound: Cc1ccc(C(=O)Nc2c[nH]nc2C(=O)NCCCOC(C)C)cn1 [GSK XXII]
Perilymph Conc: 0.2 to 1 µM
--
compound: N#Cc1ccc2[nH]c(O)c(-c3ccc(CN4CCOCC4)cn3)c2c1 [AZD 1080]
Perilymph Conc: 1 to 5 µM
--
compound: O=C1NC(=O)C(c2cnc3ccccn23)=C1c1cn2c3c(cc(F)cc13)CN(C(=O)N1CCCCC1)CC2 [LY2090314]
Perilymph Conc: 0.005 to 0.02 µM
